testedTarget: T1, SARS-CoV-2 S1 (40591-V08H3, Sino Biological) (SARS-CoV-2, UniProt P0DTC2 16-685)
T1 construct: domain: S1
assayOverview: ELISA, hmAb at 10 and 1 ug/ml in duplicate; AUC
The following binders are shown together with reported Binding AUC values.
Could you respond with only the numeric value?

Solved cases below.
binder | Binding AUC
1246H7 (antibody, V domains shown) VH: QVQLQQSGPGLMKPSETLSLTCTVSGGSISSSSYYWGWIRQPPGKGLEWIGSIYYSGATYYNPSLKSRVTISVDTSKNQLSLKLSSVTAADTAVYYCVNRYYDYVWGSWGVDCWGQGTLVTVSS VL: QAGLTQPRSVSGSPGQSVTISCTGTSSDVGGYNYVSWYQQHPGKAPKLMIYDVNKRPSGVPDRFSGSKSGNTASLTISGLQAEDEADYFCCSYAGSYTYWVFGGGTKLTVL | 1.7
1249A8 (antibody, V domains shown) VH: QVQLVQSGAEVKKPGASMKVSCKASGFTFTDYYMHWVRQAPRQGLEWMGLINPSGSGTAYAQNFQGRVTLARDTSTSTLYMEMGSLTSDDTAVYYCARMDSSGSYDHWGQGTLVTVSS VL: ETTLTQSPGTLSLSPGDRATLSCRASQTIRISYLAWYQQKPGQAPRLLVYGPSIRATGIPDRFSARGSGTDFTLTISRLEPEDFAVYYCQHYGSSPPRYTFGQGTKLEIK | 1.4
1242C6 (antibody, V domains shown, Recombinant human IgG1) VH: EVQLVQSGAEVKKPGASVKVSCKASGFTFSDYYMHWVRQAPRQGLEWMGLINPSGSGTAYAQNFQGRVTLTRDTSTSTLYMEMGSLTSDDTAVYYCARMDSSGSYDHWGQGTLVTVSS VL: DIVMTQSPGTLSLSPGDRATLSCRASQTIRISYLAWYQQKPGQAPRLLVYGPSIRATGIPDRFSASGSGTDFTLTISRLEPEDFAVYYCQHYGSSPPRYTFGQGTKLEIK | 0.8

Now look at this entry.
Fill in reported Binding AUC for this entry: 1246C2 (antibody, V domains shown) VH: QVQLVQSGGGLVKPGGSLRLSCAASGFTFKTHNMIWVRQAPGKVLEWVSSISGSSSYRYYGDSMKGRLTISRDNAKNSLYLEMNSLRAEDTAVYYCARDKGVGPTMVWYFDLWGRGTLVTVSS VL: EIVLTQSPATLSLSPGDRATLSCRASQSLSISLAWYQQKPGQAPRLLIYDASIRATGVPPRFSGSGSGTDFTLTISSLEPEDFAVYYCQQWSGWPPRLTFGGGTKVEIK
4.2
